From: PubChem BioAssay

Listed here are molecules together with their documented composite z-score.
Biological target: Follistatin (Homo sapiens) (UniProt P19883)
Sequence (P19883 whole entry, looked up): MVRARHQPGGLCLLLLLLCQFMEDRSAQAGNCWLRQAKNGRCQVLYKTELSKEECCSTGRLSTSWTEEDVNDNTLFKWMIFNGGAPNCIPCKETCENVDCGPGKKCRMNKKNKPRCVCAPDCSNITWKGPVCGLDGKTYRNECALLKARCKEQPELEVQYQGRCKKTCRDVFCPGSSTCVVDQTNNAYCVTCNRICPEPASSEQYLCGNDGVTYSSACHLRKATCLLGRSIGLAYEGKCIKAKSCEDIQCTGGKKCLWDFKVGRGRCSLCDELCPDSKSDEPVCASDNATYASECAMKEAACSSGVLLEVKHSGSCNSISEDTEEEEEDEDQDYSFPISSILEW
Test: follistatin binders on small-molecule microarrays, primary screen, biochemical, small-molecule microarray, 635/667 nm fluorescence (AID 1132)
Settings: FST binding, 635 nm fluorescence, higher = more signal
Lab note: jot the number down without any unit.

Observe how each entry below is paired with its result.
Molecule	composite z-score
CC1CC/C=C\[C@H]2OC34C=CCN(C(C)(C)C)C(=O)[C@H]3N(C(C)CO)C(=O)[C@@H]4C2C(=O)O1 (some centres not stated)	-0.397
CN(C)C(=O)[C@@]1(CCS(=O)(=O)c2ccccc2)COC(c2ccc(OCCCO)cc2)=N1	0.66
COC(=O)[C@@]1(Cc2ccc(OC)cc2)[C@H]2c3cc(C(=O)N4CCCC4)n(Cc4ccc(C)c(F)c4F)c3C[C@H]2CN1C(=O)c1ccccc1	0.884
CCc1cccc(NC(=O)O[C@H]2[C@H](OC(=O)Nc3ccccc3-c3ccccc3)[C@@H](OC(=O)Nc3ccccc3-c3ccccc3)[C@@H](OC)O[C@@H]2CO)c1	1.02
CN1C(=O)C2C=CC(C(O)C3CC=CCC3)N(N(c3ccccc3)c3ccccc3)C2C1=O (configuration not stated)	0.988
C=CCOC(=O)[C@@H]1[C@H]2C(=O)O[C@H](c3ccccc3)[C@H](c3ccccc3)N2[C@H](c2ccc(OCCOC(=O)[C@@H]3C[C@@H]4C(=O)NCC(=O)N4[C@@H]3c3ccc(O)cc3)cc2)[C@@]12C(=O)Nc1ccc(I)cc12	1.36

Now take the following molecule into account.
Record `CCCC[C@@H]1C[C@H]1[C@@H](NC(=O)C(C)(C)C)c1ccc(C(F)(F)F)cc1` . Reported composite z-score: -1.57

----------
Test system: Fibrinogen (Alexa647-labelled)
Assay: fibrinogen binders on compound microarrays, profiling panel, artefact control for SMM control-protein annotation, biochemical, small-molecule microarray, 635/667 nm fluorescence (AID 1131);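 note: z-score merges 667 nm fluorescence with per-spot signal-to-noise over triplicate slides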
Settings: fibrinogen-A647 binding fluorescence, higher = more signal
# reported composite z-score; entries follow

Molecule	composite z-score
CN(C)CCCCCCNC(=O)[C@@H]1C[C@@H]2C(=O)N[C@@H](Cc3ccccc3)C(=O)N2[C@@H]1c1ccc(O)cc1	0.493

Item `O=C1N[C@@H](Cc2ccccc2)C(=O)N2[C@@H]1C[C@@H](C(=O)O)[C@H]2c1cccc(OCCO)c1` was tested on Fibrinogen (Alexa647-labelled); the reported composite z-score is 0.56

The molecule `O=C1C[C@@](C(=O)NC2CC2)(c2ccc([N+](=O)[O-])cc2)[C@@H](c2ccc(CO)cc2I)N1C1CCCCC1` on Fibrinogen (Alexa647-labelled): composite z-score was 0.895

Measured composite z-score for this entry CC(C)C[C@@H]1NC(=O)[C@H](C(C)C)NC(=O)[C@@]23C(=O)N[C@@H](Cc4ccccc4)C2[C@H](C)[C@@]2(C)O[C@H]2C3/C=C/CC/C=C/CNC1=O (stereo partly specified) on Fibrinogen (Alexa647-labelled): 0.972

Measured composite z-score for this entry `CN(C)CCCCCCNC(=O)[C@H]1C[C@H]2C(=O)N3CCC[C@H]3C(=O)N2[C@H]1c1ccc(O)cc1` on Fibrinogen (Alexa647-labelled): 0.678

The observed composite z-score for `COCCOC(=O)N1C(=O)[C@@]2(c3cc(C#CCNC(N)=O)ccc31)[C@H](C(=O)N1CCN(c3ncccn3)CC1)[C@H]1C(=O)O[C@H](c3ccccc3)[C@H](c3ccccc3)N1[C@@H]2c1ccc(OCCO)cc1` when tested with Fibrinogen (Alexa647-labelled) stands at 0.931
